quantityMeasured: melting point (°C)
Give the value in °C but do not write °C after it.

For orientation, consider the following solved cases.
compound=CCOC(=O)CCC(=O)O quantitymeasured="melting point" unittext=°C resultnumber=8
compound=O=Cc1ccc(Cl)cc1 quantitymeasured="melting point" unittext=°C resultnumber=47.5
compound=O=C(O)Cc1cccnc1 quantitymeasured="melting point" unittext=°C resultnumber=144
compound=CCCCCCCC/C=C\CCCCCCCC(=O)[O-].[NH4+] quantitymeasured="melting point" unittext=°C resultnumber=71

Please look up its melting point: `Nc1cccc(I)c1`
33

# melting point lookup, item `N#Cc1ccccc1`
-12.7

Please look up its melting point: `CCCCCCBr`
-84.7

Quick check: melting point of CCC(C)CC(C)(C)C (stereo not given) ?
-120

For the compound `CCOC(=O)C(Br)C(=O)OCC` , what melting point is on record?
-54

Data request, read-out melting point, for `C1CN(CCN2CCOCC2)CCO1`
75

So what does the record say about melting point for `COc1cc2c3c(c4ccc(OC)c(OC)c4c2cc1OC)CN1CCC[C@H]1C3` ?
220

I would be grateful if you could share the reported melting point for `C1CCN(SSN2CCCCC2)CC1` .
64.2

Quick one: melting point of `O=C(O)c1cc(-c2ccc(F)cc2F)ccc1O` ?
216

Name the recorded melting point for `OCCCc1ccccn1` .
34

Recorded melting point of `FC(F)(F)CC(F)(F)F` , please.
-94.2

For `FC(F)(Cl)CCl` , what is its reported melting point?
-101

melting point lookup needed for `CCCCSC` , thanks.
-97.8

Give the measured melting point of `CCOC(C)=O` .
-83.6

For `C=Cc1ccccc1C` , what is its reported melting point?
-68.5

melting point for `CCCC=CC(=O)O` ?
36.5

Any idea what its melting point is? The compound is `Nc1ccc2c(c1)Cc1ccccc1-2`
129

Any idea what its melting point is? The compound is `Nc1ccc2ccc3ccccc3c2c1`
143

Attribution: the OPERA property sets (Mansouri et al. 2018)
